- Test system: murine brainstem glioma (mBSG) cells
- experimentalDetails: Cell viability / proliferation IC50
- Format: cell-based
- conditionContext: Mus musculus, read-out: IC50, cell viability
assayEndpoint: IC50

compound="Cc1nc(Nc2ncc(C(=O)Nc3c(C)cccc3Cl)s2)cc(N2CCN(CCO)CC2)n1 [dasatinib]" testedon="murine brainstem glioma (mBSG) cells" assayendpoint=IC50 result="0.019 µM"

Okay, now this compound:
Lab note: need IC50 for COc1cccc2c1C(=O)c1c(O)c3c(c(O)c1C2=O)C[C@@](O)(C(=O)CO)C[C@@H]3O[C@H]1C[C@H](N)[C@H](O)[C@H](C)O1 [doxorubicin] on murine brainstem glioma (mBSG) cells, anyone have it?
0.71 µM
